system: primary mouse cortical neurons; construct: primary cortical neurons, DIV 10; assay: cells; design: Protection from NMDA-induced (30 uM, 10 min) neuronal death; Hoechst nuclear morphology by automated microscopy; conditions: Cortical neurone, 20 h, read-out: % inhibition, inhibition of NMDA-induced cell death (protection score), 30 min pre-treatment
Quick list: inhibition at 10 µM per entry.
Answer format reminder: number followed by unit.

Completed entries (count: 5):
CC1(C)O[C@H]2CC(=O)OC[C@]23[C@H]2CC[C@@]4(C)[C@H](c5ccoc5)OC(=O)[C@H]5O[C@]54[C@]2(C)C(=O)C[C@@H]13 = -3.17%
C[C@H](Cn1cnc2c(N)ncnc21)OCP(=O)(O)O = 8.23%
COc1cc2/c(=N/c3ccc(Br)cc3F)nc[nH]c2cc1OCC1CCN(C)CC1 [Vandetanib (Zactima)] = -8.86%
CC1(C)O[C@@H]2C[C@H]3[C@@H]4CCC5=CC(=O)C=C[C@]5(C)[C@H]4[C@@H](O)C[C@]3(C)[C@]2(C(=O)CO)O1 [Desonide] = 9.64%
CCC(C)n1ncn(-c2ccc(N3CCN(c4ccc(OC[C@H]5CO[C@](Cn6cncn6)(c6ccc(Cl)cc6Cl)O5)cc4)CC3)cc2)c1=O (mixture of isomers) [Itraconazole (Sporanox)] = 2.19%

Kindly review the next compound as well.
[ask] Which inhibition at 10 µM value is on record for CC1(C)O[C@@H]2[C@@H](CO[C@@]3(COS(N)(=O)=O)OC(C)(C)O[C@@H]23)O1 [Topiramate] ?
[reply] 11.4%

---

system: primary mouse cortical neurons; construct: primary cortical neurons, DIV 10; experiment: cells; set-up: Protection from NMDA-induced (30 uM, 10 min) neuronal death; Hoechst nuclear morphology by automated microscopy; conditions: Cortical neurone, 20 h, read-out: % inhibition, inhibition of NMDA-induced cell death (protection score), 30 min pre-treatment
Quick list: inhibition at 10 µM per entry.
Answer format reminder: number followed by unit.

Completed entries (count: 4):
CN1CCN(C2=Nc3cc(Cl)ccc3Nc3ccccc32)CC1 [Clozapine (Clozaril)] = -5.01%
Nc1ccc(O)c(C(=O)O)c1 [Mesalamine (Lialda)] = 21.8%
NS(=O)(=O)Cc1noc2ccccc12 [Zonisamide] = -5.91%
C[C@H]1COc2c(N3CCN(C)CC3)c(F)cc3c(=O)c(C(=O)O)cn1c23 [Levofloxacin (Levaquin)] = -4.92%

[ask] Hello, I am looking for reported inhibition at 10 µM with primary mouse cortical neurons for C=C1C[C@@]2(O)O[C@@]3(C[C@H]2C(C)C)[C@@H](C)CC[C@@H]13 [Curcumol] . Could you help?
[reply] 7.41%

---

test system: primary mouse cortical neurons; construct: primary cortical neurons, DIV 10; experiment: cells; parameters: Protection from NMDA-induced (30 uM, 10 min) neuronal death; Hoechst nuclear morphology by automated microscopy; settings: Cortical neurone, 20 h, read-out: % inhibition, inhibition of NMDA-induced cell death (protection score), 30 min pre-treatment
Structures can show the parent of a compound that is named as a salt.
assay.readout: inhibition at 10 µM (%)
Entry rule: numbers only, all in %.

Completed entries (count: 6):
Nc1ccn([C@@H]2CS[C@H](CO)O2)c(=O)n1 [Lamivudine (Epivir)] = 0.555
CN1c2ccccc2C(=O)N2CCc3c([nH]c4ccccc34)[C@H]21 = 0.0207
CO[C@H]1C[C@@H]2CC[C@@H](C)[C@@](O)(O2)C(=O)C(=O)N2CCCC[C@H]2C(=O)O[C@H]([C@H](C)C[C@@H]2CC[C@@H](O)[C@H](OC)C2)CC(=O)[C@H](C)/C=C(\C)[C@@H](O)[C@@H](OC)C(=O)[C@H](C)C[C@H](C)/C=C/C=C/C=C/1C [Rapamycin (Sirolimus)] = -1.51
CCOC(=O)c1ccc(C#Cc2ccc3c(c2)C(C)(C)CCS3)nc1 = 38.1
COc1c(O)cc2c(c1O)[C@@H]1O[C@H](CO)[C@@H](O)[C@H](O)[C@H]1OC2=O = 1.66
Nc1ncn([C@H]2C[C@H](O)[C@@H](CO)O2)c(=O)n1 = 11.3

[ask] Which inhibition at 10 µM value is on record for C=C1C(=O)[C@]23[C@H](O)[C@H]1CC[C@H]2[C@@]12CO[C@]3(O)[C@@H](O)[C@@H]1C(C)(C)CC[C@@H]2O ?
[reply] -2.85

[ask] Now give it for NCC(=O)CCC(=O)O [5-Aminolevulinic acid hydrochloride] too.
[reply] -1.27

[ask] Now give it for COC1=C(OC)C(=O)C(C/C=C(\C)CC/C=C(\C)CC/C=C(\C)CC/C=C(\C)CC/C=C(\C)CC/C=C(\C)CC/C=C(\C)CC/C=C(\C)CC/C=C(\C)CCC=C(C)C)=C(C)C1=O too.
[reply] 9.82

[ask] Now give it for COC[C@@H](c1ccc(C(F)(F)F)cc1)N1CCN(C2(C)CCN(C(=O)c3c(C)ncnc3C)CC2)C[C@@H]1C [Vicriviroc Malate] too.
[reply] 0.113

[ask] Now give it for NC(=O)NO [Hydroxyurea (Cytodrox)] too.
[reply] -2.47

[ask] Now give it for CC(C)c1nc(CN(C)C(=O)N[C@H](C(=O)N[C@@H](Cc2ccccc2)C[C@H](O)[C@H](Cc2ccccc2)NC(=O)OCc2cncs2)C(C)C)cs1 too.
[reply] -1.84

[ask] Now give it for CO[C@H]1O[C@@H]2O[C@@]3(C)CC[C@H]4[C@H](C)CC[C@@H]([C@H]1C)[C@@]24OO3 [Artemether (SM-224)] too.
[reply] 1.03

The values you see were collected from paper PMC7489219.
